The reported measurements were obtained from ChEMBL document CHEMBL1144017.

# Tested System: Glutamate NMDA receptor
# Assay Notes: Displacement of [3H]glycine from NMDA receptor in rat cortical membrane
Measured Metric: Ki (µM)

O=C(O)c1nn2c(=O)[nH]c3cc(Cl)c(-n4cccc4)cc3c2c1C(=O)O
20
O=C(Nc1cccc(C(=O)O)c1)Nc1cc2c(cc1Cl)[nH]c(=O)n1nc(C(=O)O)c(C(=O)O)c21
35
CCOC(=O)c1nn2c(=O)[nH]c3cc(Cl)c([N+](=O)[O-])cc3c2c1[N+](=O)[O-]
36.2
O=C(O)CCNC(=O)Nc1cc2c(cc1Cl)[nH]c(=O)n1nc(C(=O)O)c(C(=O)O)c21
68
CCOC(=O)c1c(C(=O)O)nn2c(=O)[nH]c3cc(Cl)c([N+](=O)[O-])cc3c12
4.7

[1] CCNC(=O)Nc1cc2c(cc1Cl)[nH]c(=O)n1nc(C(=O)O)c(C(=O)O)c21
[2] CCOC(=O)CCCNC(=O)Nc1cc2c(cc1Cl)[nH]c(=O)n1nc(C(=O)OCC)c(C(=O)OCC)c21
-- ask Could you kindly indicate whether 1 or 2 has the higher Ki value? Mark your selection by writing its label.
-- reply 2
